System: mice
Assay: Acute toxicity test in mice
Assay type: in vivo
Settings: intraperitoneal
From the text: In an acute toxicity test performed in mice, PND-1, PND-2, PND-3 and PND-4 were given to animals by the intraperitoneal route.
Entries annotated with measured LD100

smilesCode	LD100
CCC(=O)O[C@H]1CC(=O)Nc2cc(cc(OC)c2Cl)C/C(C)=C/C=C/[C@@H](OC)[C@@]2(O)C[C@H](OC(=O)N2)[C@@H](C)[C@@H]2O[C@@]12C	2.5 mg/kg
COc1cc2cc(c1Cl)NC(=O)C[C@H](OC(=O)CC(C)C)[C@]1(C)O[C@H]1[C@H](C)[C@@H]1C[C@@](O)(NC(=O)O1)[C@H](OC)/C=C/C=C(\C)C2	2.5 mg/kg
COc1cc2cc(c1Cl)NC(=O)C[C@H](OC(C)=O)[C@]1(C)O[C@H]1[C@H](C)[C@@H]1C[C@@](O)(NC(=O)O1)[C@H](OC)/C=C/C=C(\C)C2	2.5 mg/kg
COc1cc2cc(c1Cl)NC(=O)C[C@H](OC(=O)C(C)C)[C@]1(C)O[C@H]1[C@H](C)[C@@H]1C[C@@](O)(NC(=O)O1)[C@H](OC)/C=C/C=C(\C)C2	2.5 mg/kg

Reference source for all entries: patent US4362663A
